- system-tested: serotonin 5-HT3 receptor (Cavia porcellus, UniProt O70212)
- Construct: Longitudinal muscle samples of about 20 mm were prepared from the ileum of Hartley male guinea pigs; from tissue; host or cells: guinea pig (Hartley, male) ileum longitudinal muscle
- Sequence (O70212 20-490): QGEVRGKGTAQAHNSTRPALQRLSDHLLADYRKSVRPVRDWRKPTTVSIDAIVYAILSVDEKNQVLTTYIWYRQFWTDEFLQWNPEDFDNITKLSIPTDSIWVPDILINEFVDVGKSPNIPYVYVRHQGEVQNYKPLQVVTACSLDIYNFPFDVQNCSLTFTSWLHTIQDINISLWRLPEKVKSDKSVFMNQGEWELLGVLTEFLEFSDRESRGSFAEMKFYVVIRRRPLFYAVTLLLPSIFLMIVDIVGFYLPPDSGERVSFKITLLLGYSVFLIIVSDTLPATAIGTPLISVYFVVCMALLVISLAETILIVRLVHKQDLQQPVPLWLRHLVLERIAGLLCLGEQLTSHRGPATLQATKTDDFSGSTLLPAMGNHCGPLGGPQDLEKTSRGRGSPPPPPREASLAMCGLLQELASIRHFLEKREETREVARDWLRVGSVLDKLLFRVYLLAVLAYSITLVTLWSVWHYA
- assay-overview: 5-HT3 receptor activating action test, isometric contraction of guinea pig ileum longitudinal muscle
- Type: cell-based
- conditions-used: negative logarithm of molar concentration giving 50% of the compound's maximum contraction; guinea pig ileum; read-out: Activation Action pD2 (converted)
- Experimental: 5-HT3 Receptor Activating Action Test Of the novel and known benzoxazole compounds according to the present invention, typical compounds and the compounds disclosed in JP-A-6-345744, namely 5-methoxy-2-(4-methyl-1-piperazinyl)benzoxazole (A) and 2-(4-methyl-1-piperazinyl)naphtho[2,3-d]oxazole (B), were measured for their serotonin 5-HT3 receptor antagonism and serotonin 5-HT3 receptor activating action by the following method, with the results shown in Table 1. […]
measure: log10 of EC50 (log10 of the value in nM)
Lab note - EC50 converted to log10 from values in nM.

Please review the following examples before continuing.
>  <compound>
C=CC[N+]1(C)CCN(c2nc3cc(Cl)ccc3o2)CC1 [Example 2]

>  <log10 of EC50>
2.35

$$$$
>  <compound>
Cc1cc(Cl)cc2nc(N3CCN(C)CC3)oc12 [Example 31]

>  <log10 of EC50>
2.30

$$$$

The reported log10 of EC50 value, serotonin 5-HT3 receptor (Cavia porcellus, UniProt O70212), for CN1CCCN(c2nc3c(ccc4ccccc43)o2)CC1 [Example 40] reads 1.90

The reported log10 of EC50 value, serotonin 5-HT3 receptor (Cavia porcellus, UniProt O70212), for C=CC[N+]1(C)CCN(c2nc3cc(Cl)c(N)cc3o2)CC1.[Br-] [Example 7] reads 2.50

----------
- system-tested: serotonin 5-HT3 receptor (Cavia porcellus)
- Construct: Longitudinal muscle samples of about 20 mm were prepared from the ileum of Hartley male guinea pigs; from tissue; host or cells: guinea pig (Hartley, male) ileum longitudinal muscle
- assay-overview: 5-HT3 receptor activating action test, isometric contraction of guinea pig ileum longitudinal muscle
- Type: cell-based
- conditions-used: ratio of maximum reaction of compound to maximum contraction by 10 μM serotonin 5-HT defined as 1; guinea pig ileum, 5-HT4 receptor desensitized
The following molecules are listed with their measured Activation Action i.a. values.
Form: value (number only, do not type unit).

Please review the following examples before continuing.
>  <smi>
CN1CCN(c2nc3c(ccc4ccccc43)o2)CC1

>  <Activation Action i.a.>
0.26

$$$$
>  <smi>
CN1CCN(c2nc3cc(Cl)ccc3o2)CC1

>  <Activation Action i.a.>
0.55

$$$$
>  <smi>
CN1CCN(c2nc3cc(Cl)c(N)cc3o2)CC1

>  <Activation Action i.a.>
0.59

$$$$

So, Nc1cc2oc(N3CCNCC3)nc2cc1Cl ? Its Activation Action i.a. was 0.69

So, C=CC[N+]1(C)CCN(c2nc3cc(Cl)c(N)cc3o2)CC1.[Br-] ? Its Activation Action i.a. was 0.94

So, C=CC[N+]1(C)CCN(c2nc3cc(Cl)ccc3o2)CC1 ? Its Activation Action i.a. was 0.57

----------
- system-tested: serotonin 5-HT3 receptor (Cavia porcellus, UniProt O70212)
- Construct: Longitudinal muscle samples of about 20 mm were prepared from the ileum of Hartley male guinea pigs; from tissue; host or cells: guinea pig (Hartley, male) ileum longitudinal muscle
- assay-overview: 5-HT3 receptor activating action test, isometric contraction of guinea pig ileum longitudinal muscle
- Format: cell-based
- conditions-used: negative logarithm of molar concentration giving 50% of the compound's maximum contraction; guinea pig ileum; read-out: Activation Action pD2 (converted)
The following compounds are listed with their measured EC50 values.
Kindly answer with a numeric value in nM, unit omitted.

Please review the following examples before continuing.
>  <compound>
Cc1ccc2oc(C3CCNCC3)nc2c1 [Example 16, 2-(4-Piperidyl)-5-methylbenzoxazole]

>  <unit-tag>
nM

>  <readout-value>
617

$$$$
>  <compound>
CN1CCN(c2nc3cc(Cl)c(N)cc3o2)CC1 [Example 5]

>  <unit-tag>
nM

>  <readout-value>
676

$$$$
>  <compound>
Cc1cc(C)c2oc(N3CCNCC3)nc2c1 [Example 13]

>  <unit-tag>
nM

>  <readout-value>
100

$$$$
>  <compound>
Cc1cc(C)c2oc(N3CCCN(C)CC3)nc2c1 [Example 36]

>  <unit-tag>
nM

>  <readout-value>
63.1

$$$$
>  <compound>
CN1CCN(c2nc3cc(Cl)ccc3o2)CC1 [Example 1]

>  <unit-tag>
nM

>  <readout-value>
398

$$$$

Let us move to another entry and its EC50.
So, CN1CCN(c2nc3c(ccc4ccccc43)o2)CC1 [Example 21] ? Its EC50 was 501
